Tested on: HEK-293T
test description: Multiplex assay against HEK293T
Format: toxicity, cell-based
recorded conditions: human, 24 h, 10 µM, compound concentration 10 uM, replicate 2
Returns one of rule met or rule not met; rule met when Population Fragmented Nuclei (%) is >= 6%.

structure smiles: CCCn1c(=O)c2[nH]c(-c3cnn(Cc4cccc(C(F)(F)F)c4)c3)nc2n(CC)c1=O
category label: rule not met

structure smiles: Cc1cn(-c2cc(NC(=O)c3ccc(C)c(Nc4nccc(-c5cccnc5)n4)c3)cc(C(F)(F)F)c2)cn1
category label: rule not met

Lookup: Quick check, Population Fragmented Nuclei (%) >= 6%? Cl.O=c1c2cccn2c2ccccc2n1CCCN1CCC(c2ccc(Cl)cc2)CC1
Found: rule met

Lookup: Quick check, Population Fragmented Nuclei (%) >= 6%? COc1cccc2cc(-c3nc([C@H]4CC[C@H](C(=O)O)CC4)n4ncnc(N)c34)[nH]c12
Found: rule met

Lookup: Quick check, Population Fragmented Nuclei (%) >= 6%? CCN1CCN(Cc2ccc(Nc3ncc(F)c(-c4cc(F)c5nc(C)n(C(C)C)c5c4)n3)nc2)CC1.CS(=O)(=O)O
Found: rule not met

Lookup: Quick check, Population Fragmented Nuclei (%) >= 6%? O=C1NC(=O)C(c2cnc3ccccn23)=C1c1cn2c3c(cc(F)cc13)CN(C(=O)N1CCCCC1)CC2
Found: rule met

====

Tested on: Fibroblast
test description: Multiplex assay against human fibroblast
Assay type: toxicity, cell-based
recorded conditions: 12 h, 10 µM, compound concentration 10 uM, replicate 1
measured property: Population Mitochondria Different-Phenotype (%)
Answer in %, number only, no unit symbol.

Here's what some known entries look like.
compound: Cc1cn(-c2cc(NC(=O)c3ccc(C)c(Nc4nccc(-c5cccnc5)n4)c3)cc(C(F)(F)F)c2)cn1
result number: 0
--
compound: CCc1cccc(CC)c1NC(=O)c1nn(C)c2c1CCc1cnc(Nc3ccc(C(=O)NC4CCN(C)CC4)cc3OC(F)(F)F)nc1-2
result number: 26
--
compound: COc1cc2ncnc(Nc3ccc(F)c(Cl)c3)c2cc1NC(=O)/C=C/CN1CCCCC1 [DACOMITINIB ANHYDROUS]
result number: 3

Lookup: Give recorded Population Mitochondria Different-Phenotype (%). CCOc1cc(C(=O)N2CCC(N3CCN(C)CC3)CC2)ccc1Nc1ncc2c(n1)N(C1CCCC1)c1ccccc1C(=O)N2C
Found: 56

Lookup: Give recorded Population Mitochondria Different-Phenotype (%). Cn1nc(C(F)(F)F)cc1-c1cnc(N2CCc3cc(S(=O)(=O)Nc4c(F)cc(Cl)cc4F)cc(N4CCCC4=O)c32)nc1
Found: 1

Lookup: Give recorded Population Mitochondria Different-Phenotype (%). COc1ccc(-c2ccc3c(N4CCOCC4)nc(N4C[C@@H](C)O[C@@H](C)C4)nc3n2)cc1CO
Found: 3

Lookup: Give recorded Population Mitochondria Different-Phenotype (%). NC(=O)c1cccc(-c2cc(Nc3ccc(OC(F)(F)F)cc3)ncn2)c1
Found: 3

Lookup: Give recorded Population Mitochondria Different-Phenotype (%). CCn1c(=O)c(-c2ccc(-c3cncs3)cc2Cl)cc2cnc(Nc3ccc(N4CCN(C)CC4)cc3)nc21
Found: 8

====

Form field: Population Pyknosed Nuclei (%) (one value per entry).
Test system: U2OS
test description: Multiplex assay against U2OS
Format: toxicity, cell-based
recorded conditions: human, 24 h, 1 µM, compound concentration 1 uM, replicate 1
Answer in %, number only, no unit symbol.

Here's what some known entries look like.
compound: CN1CCN(C(=O)C(C)(C)c2ccc(C(=O)Nc3cn4cc(-c5cc(C(C)(C)C)cc(C(C)(C)C)c5)ccc4n3)cc2)CC1 [T3-CLK-N]
measured target: U2OS
Population Pyknosed Nuclei (%): 10
//
compound: CN[C@@H]1C[C@H]2O[C@@](C)([C@@H]1OC)n1c3ccccc3c3c4c(c5c6ccccc6n2c5c31)C(=O)NC4 [STAUROSPORINE]
measured target: U2OS
Population Pyknosed Nuclei (%): 42
//
compound: O=C(Nc1ccc(-n2nc(-c3cccnc3)cc2C(F)(F)F)cn1)c1ccc(-c2ccccc2)c(F)c1 [BI 2049]
measured target: U2OS
Population Pyknosed Nuclei (%): 11
//
compound: Cc1ccc2nc(NCCN)c3ncc(C)n3c2c1.O=C(O)C(F)(F)F.O=C(O)C(F)(F)F
measured target: U2OS
Population Pyknosed Nuclei (%): 3
//
compound: S=C(NCCCc1c[nH]cn1)NCCCN(Cc1ccc(Cl)c(Cl)c1)c1ccc(Br)cn1
measured target: U2OS
Population Pyknosed Nuclei (%): 12

Lookup: Give recorded Population Pyknosed Nuclei (%). O=C(Nc1ccc(-c2ccnc(Nc3ccc(N4CCOCC4)cc3)n2)cc1)[C@@H]1CCCN1
Found: 15

Lookup: Give recorded Population Pyknosed Nuclei (%). O=C(Cc1ccc(-c2ccc(OCCN3CCOCC3)cc2)cn1)NCc1ccccc1 [TIRBANIBULIN]
Found: 29

Lookup: Give recorded Population Pyknosed Nuclei (%). C=CCn1c(=O)c2cnc(Nc3ccc(N4CCN(C)CC4)cc3)nc2n1-c1cccc(C(C)(C)O)n1 [ADAVOSERTIB]
Found: 38

====

Tested on: Fibroblast
test description: Multiplex assay against human fibroblast
Format: toxicity, cell-based
recorded conditions: 24 h, 1 µM, compound concentration 1 uM, replicate 2
Returns one of Yes or No; Yes when Population Mitotic Cells (%) is >= 60%.

Look over these answered cases.
molecule: CCc1cccc(CC)c1NC(=O)c1nn(C)c2c1CCc1cnc(Nc3ccc(N4CCN(C)CC4)cc3OC)nc1-2
category label: No
//
molecule: CCCS(=O)(=O)c1nc(NC2CC2)cc(-c2ccc3c(ccn3C3CC(C)(C)NC(C)(C)C3)c2)n1
category label: Yes
//
molecule: CN1CCC(=C2c3ccccc3CC(=O)c3sccc32)CC1.O=C(O)/C=C/C(=O)O [KETOTIFEN FUMARATE]
category label: No
//
molecule: CCNc1cc(N[C@H]2CC[C@H](O)CC2)nc(Nc2ccc3c(ccn3Cc3ccccc3)c2)n1
category label: No
//
molecule: CN[C@@H]1C[C@H]2O[C@@](C)([C@@H]1OC)n1c3ccccc3c3c4c(c5c6ccccc6n2c5c31)C(=O)NC4 [STAUROSPORINE]
category label: No
//
molecule: COc1cc(N2CCN(C)CC2)ccc1Nc1ncc2c(n1)N(C)c1ccccc1C(=O)N2C
category label: No

Lookup: Quick check, Population Mitotic Cells (%) >= 60%? CCOc1cc(C(=O)N2CCC(N3CCN(C)CC3)CC2)ccc1Nc1ncc2c(n1)N(C1CCCC1)c1ccccc1C(=O)N2C
Found: Yes

Lookup: Quick check, Population Mitotic Cells (%) >= 60%? CCN1CCN(Cc2ccc(Nc3ncc(F)c(-c4cc(F)c5nc(C)n(C(C)C)c5c4)n3)nc2)CC1.CS(=O)(=O)O
Found: No

Lookup: Quick check, Population Mitotic Cells (%) >= 60%? COC(=N)c1nc2ccc3ncnc(Nc4ccc(OC)cc4F)c3c2s1
Found: No

Lookup: Quick check, Population Mitotic Cells (%) >= 60%? O=C(Nc1ccc(-n2nc(-c3cccnc3)cc2C(F)(F)F)cn1)c1ccc(-c2ccccc2)c(F)c1 [BI 2049]
Found: Yes

Lookup: Quick check, Population Mitotic Cells (%) >= 60%? COc1ccc(-c2ccc3c(N4CCOCC4)nc(N4C[C@@H](C)O[C@@H](C)C4)nc3n2)cc1CO [Ku-0063794]
Found: No

====

Tested on: HEK-293T
test description: Multiplex assay against HEK293T
Assay type: toxicity, cell-based
recorded conditions: human, 48 h, 10 µM, compound concentration 10 uM, replicate 2
# strict inequality: Population Normal (%) < 90% yields Y, everything else yields N

Look over these answered cases.
molecule: CCn1c(=O)c(-c2ccc(-c3cncs3)cc2Cl)cc2cnc(Nc3ccc(N4CCN(C)CC4)cc3)nc21
category label: N
//
molecule: CCN1CCN(Cc2ccc(Nc3ncc(F)c(-c4cc(F)c5nc(C)n(C(C)C)c5c4)n3)nc2)CC1.CS(=O)(=O)O
category label: Y
//
molecule: CCCn1c(=O)c2[nH]c(-c3cnn(Cc4cccc(C(F)(F)F)c4)c3)nc2n(CC)c1=O
category label: N
//
molecule: Cc1cn(-c2cc(NC(=O)c3ccc(C)c(Nc4nccc(-c5cccnc5)n4)c3)cc(C(F)(F)F)c2)cn1
category label: N
//
molecule: Cl.O=C(c1ccc(Nc2nccc(-c3cc4ccccc4s3)n2)cc1)N1CCC(N2CCCC2)CC1
category label: Y
//
molecule: CCOc1cc2ncc(C#N)c(Nc3ccc(OCc4ccccn4)c(Cl)c3)c2cc1NC(=O)/C=C/CN(C)C
category label: Y
//
molecule: COCC(=O)NC/C=C/c1ccc2ncnc(Nc3ccc(Oc4ccc(C)nc4)c(C)c3)c2c1
category label: N
//
molecule: Cl.Oc1ccc2c3c1O[C@H]1c4[nH]c5c(c4C[C@@]4(O)[C@@H](C2)N(CC2CC2)CC[C@]314)C[C@@]1(O)[C@H]2Cc3ccc(O)c4c3[C@@]1(CCN2CC1CC1)[C@H]5O4
category label: N
//
molecule: CN1CCC(=C2c3ccccc3CC(=O)c3sccc32)CC1.O=C(O)/C=C/C(=O)O [KETOTIFEN FUMARATE]
category label: N
//
molecule: C=C1/C(=C\C=C2/CCC[C@]3(C)[C@@H]([C@H](C)/C=C/[C@H](C)C(C)C)CC[C@@H]23)C[C@@H](O)C[C@@H]1O
category label: N

Lookup: Please check: Population Normal (%) for CN[C@@H]1C[C@H]2O[C@@](C)([C@@H]1OC)n1c3ccccc3c3c4c(c5c6ccccc6n2c5c31)C(=O)NC4 , strictly under 90% or not?
Found: Y

Lookup: Please check: Population Normal (%) for CN(C)C(=O)C(CCN1CCC(O)(c2ccc(Cl)cc2)CC1)(c1ccccc1)c1ccccc1.Cl [LOPERAMIDE HYDROCHLORIDE] , strictly under 90% or not?
Found: Y

Lookup: Please check: Population Normal (%) for O=C(Cc1ccc(-c2ccc(OCCN3CCOCC3)cc2)cn1)NCc1ccccc1 , strictly under 90% or not?
Found: N
